// values below are reported polymerase ribozyme fitness (log ratio)
B1: TPR t1 (parent)
chain: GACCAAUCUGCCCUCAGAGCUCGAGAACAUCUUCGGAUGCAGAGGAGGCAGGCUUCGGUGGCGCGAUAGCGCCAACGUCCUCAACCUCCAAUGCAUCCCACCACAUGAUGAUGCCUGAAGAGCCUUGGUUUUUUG

Variants of: B1
Assay remarks: polymerase ribozyme fitness, log enrichment relative to wild type (log ratio); higher = more active; in vitro selection for triplet polymerase activity
Give the figure by itself; no unit, no explanation.

See these solved cases before continuing.
Change: C8G C20U A46U G52C A91G
polymerase ribozyme fitness (log ratio): -4.53

Change: C13U A37U C64G G93C A105U G110U U129G
polymerase ribozyme fitness (log ratio): -7.07

Change: A41C G44C
polymerase ribozyme fitness (log ratio): -1.48

Change: C11U G39A
polymerase ribozyme fitness (log ratio): -1.08

Change: C11U U112G G127A
polymerase ribozyme fitness (log ratio): -1.34

Change: A29U C72U C104U
polymerase ribozyme fitness (log ratio): -1.81

Change: C40U C123U
polymerase ribozyme fitness (log ratio): 0.0584

Change: C40U A41C G48U C56U G58C
polymerase ribozyme fitness (log ratio): -1.43

Change: G39U C62A C70U
polymerase ribozyme fitness (log ratio): -2.07

Change: A18U A43C A121C
polymerase ribozyme fitness (log ratio): -0.924

Problem: Look up and report measured polymerase ribozyme fitness (log ratio) for this entry: A105U G120U
Solution: -2.54

Problem: Look up and report measured polymerase ribozyme fitness (log ratio) for this entry: A27U G113U
Solution: -4.99

Problem: Look up and report measured polymerase ribozyme fitness (log ratio) for this entry: U59C C82A C88G
Solution: -2.83

Problem: Look up and report measured polymerase ribozyme fitness (log ratio) for this entry: A5C C12A C73U
Solution: -0.891

Problem: Look up and report measured polymerase ribozyme fitness (log ratio) for this entry: U59A G63A
Solution: -1.13

Problem: Look up and report measured polymerase ribozyme fitness (log ratio) for this entry: C8U G51A C56A G120U
Solution: -3.67

Problem: Look up and report measured polymerase ribozyme fitness (log ratio) for this entry: G52C G69A C114U
Solution: -5.1

Problem: Look up and report measured polymerase ribozyme fitness (log ratio) for this entry: G36A U106A G117A
Solution: -1.88

Problem: Look up and report measured polymerase ribozyme fitness (log ratio) for this entry: G42A G63U
Solution: -3.48

Problem: Look up and report measured polymerase ribozyme fitness (log ratio) for this entry: C73U C82A
Solution: 0.468

Problem: Look up and report measured polymerase ribozyme fitness (log ratio) for this entry: C11U C15A C40U C73A C123G
Solution: -0.889

Problem: Look up and report measured polymerase ribozyme fitness (log ratio) for this entry: C72U G120C U131G
Solution: 0.516

Problem: Look up and report measured polymerase ribozyme fitness (log ratio) for this entry: G51A G57C C114A
Solution: -3.38

Problem: Look up and report measured polymerase ribozyme fitness (log ratio) for this entry: A68G C73G C82U
Solution: -5.21

Problem: Look up and report measured polymerase ribozyme fitness (log ratio) for this entry: C20A G45U C56U
Solution: -3.25

Problem: Look up and report measured polymerase ribozyme fitness (log ratio) for this entry: U33A U59A U112C G122C
Solution: -4.47

Problem: Look up and report measured polymerase ribozyme fitness (log ratio) for this entry: U9A G51A U112A
Solution: -2.45

Problem: Look up and report measured polymerase ribozyme fitness (log ratio) for this entry: G10C G42C G44U C72U U87G
Solution: -5.88

Problem: Look up and report measured polymerase ribozyme fitness (log ratio) for this entry: C56U G63U
Solution: -4.18

Problem: Look up and report measured polymerase ribozyme fitness (log ratio) for this entry: C86A G120U
Solution: -0.761

Problem: Look up and report measured polymerase ribozyme fitness (log ratio) for this entry: C56U C82A G110C
Solution: -4.8

Problem: Look up and report measured polymerase ribozyme fitness (log ratio) for this entry: U54A U55A G61A A74G
Solution: -1.53
